assay-target: kinase domain of JAK3 (Homo sapiens, UniProt P52333)
Construct: The kinase domains of JAK3 and BMX at 2 μM; made in house
Sequence (P52333 822-1111 limits assumed): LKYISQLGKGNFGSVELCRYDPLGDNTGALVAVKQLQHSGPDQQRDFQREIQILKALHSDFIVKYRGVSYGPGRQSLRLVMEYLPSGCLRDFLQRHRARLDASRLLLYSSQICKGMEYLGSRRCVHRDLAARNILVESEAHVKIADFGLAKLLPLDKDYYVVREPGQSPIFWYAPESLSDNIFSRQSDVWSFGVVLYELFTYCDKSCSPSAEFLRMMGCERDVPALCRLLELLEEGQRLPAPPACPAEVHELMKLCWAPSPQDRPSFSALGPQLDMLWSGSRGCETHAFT
procedure-summary: Thermal shift (ΔTm) assay
Assay type: binding
setup-conditions: 2 μM kinase domain, 10 μM inhibitor; mean ± SD of at least three measurements
# ΔTm at 10 µM annotations

Consider the worked cases shown below.
C=CC(=O)Nc1cccc(-c2c[nH]c3ncc(C(=O)NC4CCCC4)cc23)c1 [Compound 11a]; 9.12 °C
C=CC(=O)Nc1cccc(-c2c[nH]c3ncc(NC(=O)Cc4cccs4)cc23)c1 [Compound 12i]; 10.1 °C
C=CC(=O)Nc1cccc(-c2c[nH]c3ncc(NC(=O)c4ccco4)cc23)c1 [Compound 12d]; 9.93 °C

Challenge: Bench note: what ΔTm at 10 µM did C=CC(=O)Nc1cccc(-c2c[nH]c3ncc(NC(=O)c4ccccc4)cc23)c1 [Compound 12e] show?
Response given: 10.9 °C

Challenge: Bench note: what ΔTm at 10 µM did C=CC(=O)Nc1cccc(-c2c[nH]c3ncc(C(=O)NCC)cc23)c1 [Compound 11d] show?
Response given: 10.3 °C

###

assay-target: Full length BTK (C-terminal NanoLuc fusion) (Homo sapiens)
Construct: Full length BMX and BTK was cloned into pFC32K
Sequence (Q06187 whole entry, the tested form may be a part): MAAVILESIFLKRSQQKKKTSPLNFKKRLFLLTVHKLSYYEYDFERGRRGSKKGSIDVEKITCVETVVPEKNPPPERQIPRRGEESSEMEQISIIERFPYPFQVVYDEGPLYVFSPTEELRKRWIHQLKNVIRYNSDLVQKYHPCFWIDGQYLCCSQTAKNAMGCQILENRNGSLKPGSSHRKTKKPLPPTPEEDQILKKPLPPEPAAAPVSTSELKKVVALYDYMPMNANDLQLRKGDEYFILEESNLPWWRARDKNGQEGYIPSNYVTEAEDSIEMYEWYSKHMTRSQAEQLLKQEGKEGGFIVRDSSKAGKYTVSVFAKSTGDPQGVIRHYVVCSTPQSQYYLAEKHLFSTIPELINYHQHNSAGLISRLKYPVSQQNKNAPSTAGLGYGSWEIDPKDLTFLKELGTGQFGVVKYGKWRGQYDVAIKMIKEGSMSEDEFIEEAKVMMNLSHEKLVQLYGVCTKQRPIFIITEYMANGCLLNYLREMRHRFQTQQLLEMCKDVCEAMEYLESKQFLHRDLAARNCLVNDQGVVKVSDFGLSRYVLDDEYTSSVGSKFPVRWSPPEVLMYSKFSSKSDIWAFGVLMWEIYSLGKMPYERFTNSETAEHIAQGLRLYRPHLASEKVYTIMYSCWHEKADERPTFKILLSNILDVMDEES
procedure-summary: Cellular NanoBRET target engagement assay in HEK293T cells
setup-conditions: 0.5 µM Tracer K5, 2 h incubation
result-type: IC50 (nM)
Kindly provide the numeric value in nM only, without the unit symbol.

Consider the worked cases shown below.
CCC(=O)Nc1cccc(-c2c[nH]c3ncccc23)c1 [Compound 9b]; 9220
C=CC(=O)Nc1cccc(-c2c[nH]c3ncccc23)c1 [Compound 9a]; 15
C=CC(=O)Nc1cccc(-c2c[nH]c3ncc(C(=O)NC4CCCC4)cc23)c1 [Compound 11a]; 2070

Now for a further compound.
Challenge: Bench note: what IC50 did C=CC(=O)Nc1cccc(-c2c[nH]c3ncc(NC(=O)Cc4cccs4)cc23)c1 [Compound 12i] show?
Response given: 37

###

# ΔTm at 10 µM annotations
assay-target: kinase domain of BMX (Homo sapiens)
Construct: The kinase domains of JAK3 and BMX at 2 μM
Sequence (P51813 417-675 limits assumed): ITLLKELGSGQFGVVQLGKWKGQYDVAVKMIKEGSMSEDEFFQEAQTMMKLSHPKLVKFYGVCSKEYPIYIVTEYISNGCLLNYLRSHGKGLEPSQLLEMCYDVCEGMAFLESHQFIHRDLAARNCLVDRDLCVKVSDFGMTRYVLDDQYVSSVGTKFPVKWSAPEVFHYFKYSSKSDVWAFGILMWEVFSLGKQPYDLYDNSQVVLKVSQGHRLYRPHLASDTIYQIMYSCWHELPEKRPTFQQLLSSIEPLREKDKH
procedure-summary: Thermal shift (ΔTm) assay
Type: binding
setup-conditions: 2 μM kinase domain, 10 μM inhibitor; mean ± SD of at least three measurements
Kindly provide the numeric value in °C only, without the unit symbol.

C=CC(=O)Nc1cccc(-c2c[nH]c3ncc(NC(=O)Cc4cccs4)cc23)c1 [Compound 12i]; 11.5
C=CC(=O)Nc1cccc(-c2c[nH]c3ncc(NC(=O)CC4CCCC4)cc23)c1 [Compound 12g]; 11.9

Challenge: Bench note: what ΔTm at 10 µM did C=CC(=O)Nc1cccc(-c2c[nH]c3ncc(NC(C)=O)cc23)c1 [Compound 12f] show?
Response given: 10.6
